The reported measurements were obtained from patent US20240246969A1.

Target: CaMKK2 (Homo sapiens)
Sequence (Q96RR4 whole entry): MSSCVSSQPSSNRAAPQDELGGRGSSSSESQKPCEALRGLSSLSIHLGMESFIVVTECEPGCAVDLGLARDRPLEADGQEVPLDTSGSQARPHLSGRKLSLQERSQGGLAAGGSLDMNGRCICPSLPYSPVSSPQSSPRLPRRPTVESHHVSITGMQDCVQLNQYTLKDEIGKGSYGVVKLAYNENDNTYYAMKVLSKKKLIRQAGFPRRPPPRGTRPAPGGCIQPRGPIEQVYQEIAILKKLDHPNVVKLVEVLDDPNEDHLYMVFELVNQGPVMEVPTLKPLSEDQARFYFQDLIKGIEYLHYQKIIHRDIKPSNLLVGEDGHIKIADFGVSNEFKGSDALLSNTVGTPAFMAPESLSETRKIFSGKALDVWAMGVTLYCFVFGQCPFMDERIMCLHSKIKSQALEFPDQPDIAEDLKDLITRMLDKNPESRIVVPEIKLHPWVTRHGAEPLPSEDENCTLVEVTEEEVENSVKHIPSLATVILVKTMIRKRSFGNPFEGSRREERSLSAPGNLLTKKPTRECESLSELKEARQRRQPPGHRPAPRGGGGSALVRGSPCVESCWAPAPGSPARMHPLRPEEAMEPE
Assay: CaMKK2 binding assay (LanthaScreen TR-FRET)
measurement-kind: IC50

{"columns": ["smiles-string", "target-under-test", "experimental-result"],
 "data": [
  ["O=C(O)c1ccc(-n2ccc3ncc(-c4ccc(F)cc4)nc32)cc1NC1CC1", "CaMKK2 (Homo sapiens)", "< 100 nM"],
  ["O=C(O)c1ccc(-n2ccc3ncc(-c4ccc(F)cc4F)nc32)cc1NC1CC1", "CaMKK2 (Homo sapiens)", "< 100 nM"],
  ["CCOc1cc2nccc(-c3ccc(C(=O)O)c(C4CCCC4)c3)n2n1", "CaMKK2 (Homo sapiens)", "< 100 nM"],
  ["O=C(NS(=O)(=O)C(F)(F)F)c1ccc(-n2ccc3ncc(C4CC4)nc32)cc1C1CCCC1", "CaMKK2 (Homo sapiens)", "100 to 1000 nM"],
  ["c1cc(-c2nn[nH]n2)c(C2CCCC2)cc1-n1ccc2ncc(C3CC3)nc21", "CaMKK2 (Homo sapiens)", "< 100 nM"]
]}
